Reference source for all entries: patent US8476253B2

molecular target: neurokinin NK1 receptor (Cavia porcellus, UniProt P30547); construct: Using healthy guinea pigs (body weight, 350 to 550 g; Hartley male guinea pigs); from tissue; host or cells: live anaesthetised Hartley male guinea pigs (airway, in vivo); test: Effect of suppressing substance P-induced airway contraction (in vivo, intratracheal administration); set-up: species or system guinea pig; conditions: guinea pig; guinea pigs, intratracheal administration 60 minutes before 20 μg/kg i.v. SP; AUC of increase in airway pressure over 10 minutes; read-out: ID50 (the source's name)
Sequence (P30547 whole entry): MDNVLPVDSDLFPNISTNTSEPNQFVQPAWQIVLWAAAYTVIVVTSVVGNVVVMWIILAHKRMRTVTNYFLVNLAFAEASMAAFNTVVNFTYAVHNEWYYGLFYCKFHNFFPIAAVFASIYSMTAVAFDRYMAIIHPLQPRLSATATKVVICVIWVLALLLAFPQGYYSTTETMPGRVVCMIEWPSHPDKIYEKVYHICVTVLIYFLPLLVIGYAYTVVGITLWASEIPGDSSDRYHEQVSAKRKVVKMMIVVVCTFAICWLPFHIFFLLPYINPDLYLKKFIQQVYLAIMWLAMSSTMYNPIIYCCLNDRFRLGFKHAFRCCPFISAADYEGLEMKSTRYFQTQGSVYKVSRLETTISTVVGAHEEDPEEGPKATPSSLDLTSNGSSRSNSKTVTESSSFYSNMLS
Counter-ions that a name gives are not always drawn.
outcome_measure: ED50 (mg/kg)
Give the quantity in mg/kg, number only.

[
  {
    "molecule": "CN(CCN1CCC(OC(=O)Nc2ccccc2-c2ccccc2)CC1)C(=O)CCCCCNc1ccc(C(=O)N2CCCN(C(=O)CO[C@H]3Cc4ccccc4C34CCN(CC[C@@]3(c5ccc(F)cc5)CN(C(=O)c5cc(C(F)(F)F)cc(C(F)(F)F)c5)CO3)CC4)CC2)cc1 [Example 110, trihydrochloride]",
    "unit_abbrev": "mg/kg",
    "number": 0.0174
  }
]

Exam item: Endpoint output: ED50 of CN(CCN1CCC(OC(=O)Nc2ccccc2-c2ccccc2)CC1)C(=O)CCCCCNCc1ccc(C(=O)N(C)CCCN(C)C(=O)CO[C@H]2Cc3ccccc3C23CCN(CC[C@@]2(c4ccc(F)cc4)CN(C(=O)c4cc(C(F)(F)F)cc(C(F)(F)F)c4)CO2)CC3)s1 [Example 1] . Value?
Marked response: 0.0147

Exam item: Quick one: ED50 for CN(CCN1CCC(OC(=O)Nc2ccccc2-c2ccccc2)CC1)C(=O)CCCCCNc1ccc(C(=O)N(C)CCCN(C)C(=O)CO[C@H]2Cc3ccccc3C23CCN(CC[C@@]2(c4ccc(F)cc4)CN(C(=O)c4cc(C(F)(F)F)cc(C(F)(F)F)c4)CO2)CC3)nc1 [Example 9] ?
Marked response: 0.0348

----------
Below: a set of entries, each annotated with reported pKi.
biological target: substance P receptor (Cavia porcellus, UniProt P30547); construct: A preparation of a crude lung membrane sample was prepared; from tissue; host or cells: guinea-pig lung (crude membrane sample); assay: Test for binding to guinea-pig substance P receptor (crude lung membrane sample); conditions: crude guinea-pig lung membrane sample, [3H]substance P; Ki from IC50 and Kd; read-out: Ki
Sequence (P30547 whole entry): as above
Where a name gives a salt, the structure may show the parent alone.
// returns pKi (minus log10 of molar concentration), number only

Some solved cases for reference:
[
  {
    "compound": "CN(CCN1CCC(OC(=O)Nc2ccccc2-c2ccccc2)CC1)C(=O)CCCCCNc1ccc(C(=O)N2CCCN(C(=O)CO[C@H]3Cc4ccccc4C34CCN(CC[C@@]3(c5ccc(F)cc5)CN(C(=O)c5cc(C(F)(F)F)cc(C(F)(F)F)c5)CO3)CC4)CC2)cc1 [Example 110, trihydrochloride]",
    "outcome_measure": "pKi",
    "number": 8.77
  },
  {
    "compound": "CN(CCN1CCC(OC(=O)Nc2ccccc2-c2ccccc2)CC1)C(=O)CCCCCNc1ccc(C(=O)N(C)CCN(C)C(=O)CO[C@H]2Cc3ccccc3C23CCN(CC[C@@]2(c4ccc(F)cc4)CN(C(=O)c4cc(C(F)(F)F)cc(C(F)(F)F)c4)CO2)CC3)cc1 [Example 15]",
    "outcome_measure": "pKi",
    "number": 8.82
  }
]

Exam item: Which pKi value belongs to CN(CCN1CCC(OC(=O)Nc2ccccc2-c2ccccc2)CC1)C(=O)CCCCCNCc1ccc(C(=O)N(C)CCCN(C)C(=O)CO[C@H]2Cc3ccccc3C23CCN(CC[C@@]2(c4ccc(F)cc4)CN(C(=O)c4cc(C(F)(F)F)cc(C(F)(F)F)c4)CO2)CC3)s1 ?
Marked response: 8.82

Exam item: What measured pKi goes with CN(CCN1CCC(OC(=O)Nc2ccccc2-c2ccccc2)CC1)C(=O)CCCCCNc1ccc(NC(=O)CCCN(C)C(=O)CO[C@H]2Cc3ccccc3C23CCN(CC[C@@]2(c4ccc(F)cc4)CN(C(=O)c4cc(C(F)(F)F)cc(C(F)(F)F)c4)CO2)CC3)cc1 [Example 82, trihydrochloride] ?
Marked response: 8.35

Exam item: I'd like to know its pKi. The compound in question is CN(CCN1CCC(OC(=O)Nc2ccccc2-c2ccccc2)CC1)C(=O)CCCCCNc1ccc(C(=O)N(C)CCCN(C)C(=O)CO[C@H]2Cc3ccccc3C23CCN(CC[C@@]2(c4ccc(F)cc4)CN(C(=O)c4cc(C(F)(F)F)cc(C(F)(F)F)c4)CO2)CC3)s1
Marked response: 8.74

Exam item: Given CN(CCN1CCC(OC(=O)Nc2ccccc2-c2ccccc2)CC1)C(=O)CCCCCNc1cccc(C(=O)N(C)CCCN(C)C(=O)CO[C@H]2Cc3ccccc3C23CCN(CC[C@@]2(c4ccc(F)cc4)CN(C(=O)c4cc(C(F)(F)F)cc(C(F)(F)F)c4)CO2)CC3)c1 [Example 43, trihydrochloride] , state its recorded pKi.
Marked response: 8.80

Exam item: Return reported pKi; argument: CN(CCN1CCC(OC(=O)Nc2ccccc2-c2ccccc2)CC1)C(=O)CCCCN(C)c1ccc(C(=O)N(C)CCCN(C)C(=O)CO[C@H]2Cc3ccccc3C23CCN(CC[C@@]2(c4ccc(F)cc4)CN(C(=O)c4cc(C(F)(F)F)cc(C(F)(F)F)c4)CO2)CC3)cc1 [Example 38, trihydrochloride]
Marked response: 8.82
